# ASSAY_SUMMARY: growth suppression of beta-catenin knockout HCT116, pilot screen, human colon tumor cells (AID 823);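 further: 0% = wells killed by 20 µM Hyamine and 100% = untreated DMSO cell wells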
# RUN_PARAMETERS: CellTiter-Glo, 60 h, at 10 µM, active compounds read low
Inconclusive results are not listed.
ASSAY_ENDPOINT: viability (%)
Numbers only, in %.

Answered examples (5):
COMPOUND | MEASUREMENT
CCCCn1c(CN2CCOCC2)nc2c1c(=O)n(C)c(=O)n2C | 93.8
O=C(O)c1cc2nc(C3CC3)cc(C(F)(F)F)n2n1 | 102
COCCNC(=O)Cn1cnc2sc(C)c(S(=O)(=O)N3CCC(C)CC3)c2c1=O | 100
N#Cc1ccc(Oc2cccnc2)cc1C#N | 100
CC1(C)Cc2c(C#N)c(NCCCO)nc(-c3ccccc3)c2CO1 | 88

Q: Requested read-out: viability. Entry: CCn1c(C(C)NC(C)=O)nc2ccccc21 (stereo unspecified)
A: 112

Origin of values: PubChem BioAssay
